experimental target: NLRP3 inflammasome (Homo sapiens, UniProt Q96P20)
Construct: endogenous in cells
Sequence (Q96P20 whole entry): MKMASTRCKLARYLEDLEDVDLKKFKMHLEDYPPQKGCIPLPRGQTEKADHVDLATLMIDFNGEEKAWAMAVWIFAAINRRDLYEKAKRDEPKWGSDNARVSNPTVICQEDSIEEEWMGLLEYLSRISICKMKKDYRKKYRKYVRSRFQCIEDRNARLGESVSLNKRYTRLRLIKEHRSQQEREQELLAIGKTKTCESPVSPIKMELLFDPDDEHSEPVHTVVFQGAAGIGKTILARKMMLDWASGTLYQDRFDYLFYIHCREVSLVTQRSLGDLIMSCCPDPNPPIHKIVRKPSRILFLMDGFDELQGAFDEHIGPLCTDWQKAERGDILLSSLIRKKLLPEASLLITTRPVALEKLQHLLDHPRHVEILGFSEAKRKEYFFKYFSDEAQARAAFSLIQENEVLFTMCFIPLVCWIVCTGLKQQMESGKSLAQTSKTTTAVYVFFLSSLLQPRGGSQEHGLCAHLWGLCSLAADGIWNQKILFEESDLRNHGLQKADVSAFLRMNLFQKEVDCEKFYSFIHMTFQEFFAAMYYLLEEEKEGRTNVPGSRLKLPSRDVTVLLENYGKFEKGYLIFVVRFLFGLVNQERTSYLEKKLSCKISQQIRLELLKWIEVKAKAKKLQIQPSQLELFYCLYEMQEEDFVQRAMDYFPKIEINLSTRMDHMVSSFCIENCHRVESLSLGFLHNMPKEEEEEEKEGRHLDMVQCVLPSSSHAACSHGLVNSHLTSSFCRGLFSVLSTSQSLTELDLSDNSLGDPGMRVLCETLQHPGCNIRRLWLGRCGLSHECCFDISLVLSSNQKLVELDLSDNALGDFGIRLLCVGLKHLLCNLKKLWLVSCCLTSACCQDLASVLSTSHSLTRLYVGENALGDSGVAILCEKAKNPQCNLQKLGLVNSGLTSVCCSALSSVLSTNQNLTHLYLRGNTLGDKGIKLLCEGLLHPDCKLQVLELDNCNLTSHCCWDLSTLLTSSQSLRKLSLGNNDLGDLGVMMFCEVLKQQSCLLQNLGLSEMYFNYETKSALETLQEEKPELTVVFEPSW
assay remarks: THP-1 IL-1β production inhibition test
applied conditions: PMA-treated THP-1 cells, LPS 50 ng/ml + ATP 5 mM, 2 hours, IL-1β in supernatant by ELISA
pIC50: −log10 of the molar value. Where a name gives a salt, the structure may show the parent alone.
measured parameter: pIC50

The cases that follow already have their pIC50 on record.
molecule="COC(=O)N1CCC[C@@H](N2CCCc3c2nnc(-c2ccc(C(F)(F)F)cc2O)c3C)C1 [Example 32]" experimental_target="NLRP3 inflammasome (Homo sapiens, UniProt Q96P20)" measured_parameter=pIC50 value_reported=7.02
molecule="CC(=O)N1CCN([C@@H]2CCCC[C@H]2O)c2nnc(-c3ccc(C(F)(F)F)cc3O)c(C)c2C1 [Example 40]" experimental_target="NLRP3 inflammasome (Homo sapiens, UniProt Q96P20)" measured_parameter=pIC50 value_reported=6.72
molecule="Cc1c(-c2ccc(C(F)(F)F)cc2O)nnc2c1CN(C)CN2[C@@H]1CCCC[C@H]1O [Example 36]" experimental_target="NLRP3 inflammasome (Homo sapiens, UniProt Q96P20)" measured_parameter=pIC50 value_reported=7.96
molecule="Cc1c(-c2ccc(C(F)(F)F)cc2O)nnc2c1CCCN2[C@@H]1CCCN(C)C1 [Example 2]" experimental_target="NLRP3 inflammasome (Homo sapiens, UniProt Q96P20)" measured_parameter=pIC50 value_reported=8.20
molecule="Cc1c(-c2ccc(C(F)F)cc2O)nnc2c1CN(C)CCN2[C@@H]1CCCC[C@H]1O [Example 44]" experimental_target="NLRP3 inflammasome (Homo sapiens, UniProt Q96P20)" measured_parameter=pIC50 value_reported=7.52
molecule="Cc1c(-c2ccc(C(F)(F)F)cc2O)nnc2c1CCCN2[C@@H]1CCCN(S(C)(=O)=O)C1 [Example 34]" experimental_target="NLRP3 inflammasome (Homo sapiens, UniProt Q96P20)" measured_parameter=pIC50 value_reported=7.43
molecule="CN[C@@H]1CCCC[C@H]1N1CCCc2c1nnc(-c1ccc(C(F)(F)F)cc1O)c2C [Example 17]" experimental_target="NLRP3 inflammasome (Homo sapiens, UniProt Q96P20)" measured_parameter=pIC50 value_reported=6.39
molecule="CCN1CCN([C@@H]2CCCC[C@H]2O)c2nnc(-c3ccc(C(F)(F)F)cc3O)c(C)c2C1 [Example 41]" experimental_target="NLRP3 inflammasome (Homo sapiens, UniProt Q96P20)" measured_parameter=pIC50 value_reported=7.59
molecule="Cc1c(-c2ccc(C(F)(F)F)cc2O)nnc2c1CCCN2[C@@H]1CCCN(CCO)C1 [Example 27, dihydrochloride]" experimental_target="NLRP3 inflammasome (Homo sapiens, UniProt Q96P20)" measured_parameter=pIC50 value_reported=7.38
molecule="CC(=O)NCCCCN1CCOCc2c1nnc(-c1ccc(C(F)(F)F)cc1O)c2C [Example 25]" experimental_target="NLRP3 inflammasome (Homo sapiens, UniProt Q96P20)" measured_parameter=pIC50 value_reported=7.40

I. Cc1c(-c2ccc(C(F)(F)F)cc2O)nnc2c1CNCCN2[C@@H]1CCCC[C@H]1O [Example 38]
II. Cc1c(-c2ccc(C(F)(F)F)cc2O)nnc2c1CCCN2[C@@H]1CC[C@H](C#N)C1 [Example 22]
### Prompt Could you tell me which of I and II has the lower pIC50 reading? Respond with the label that goes with your answer.
### Response II
(II: 6.92, I: 8.12)

A. Cc1c(-c2ccc(OC(F)F)cc2O)nnc2c1CCN2[C@H]1CCNC1=O [Example 45]
B. Cc1c(-c2ccc(C(F)(F)F)cc2O)nnc2c1COCCN2[C@@H]1CCCC[C@H]1O [Example 4]
C. Cc1c(-c2ccc(C(F)(F)F)cc2O)nnc2c1CCCN2[C@@H]1CCN(C)C[C@H]1O [Example 16]
D. CC(=O)O[C@@H]1CCCC[C@H]1N1CCN(C(C)=O)Cc2c1nnc(-c1ccc(C(F)(F)F)cc1O)c2C [Example 39]
E. COc1ccc(-c2nnc3c(c2C)COCCN3[C@@H]2CCCN(C)C2)c(O)c1 [Example 6]
### Prompt Hello, I need these entries ordered by pIC50, highest reading first. Thanks! Put the labels in the requested order and write them down.
### Response B, E, A, D, C
